Taken from patent US20250296936A1.

# Tested on: SARS-CoV-2-NLuc in A549-hACE2 cells
# Assay method text: microbe, parasite or virus in culture
# Type: cell-based, SARS Coronavirus 2
# Measurement parameters: Severe acute respiratory syndrome coronavirus, 48 h, read-out: MPro EC50 (nM)
Hi! Could you tag entries with EC50 below 200 nM as t, and those at or above as f? Much appreciated.

Record excerpt, results attached:
COc1ccc2cncc(-n3c(=O)c4oc(-c5ccccc5Cl)cc4n(CCC#N)c3=O)c2c1 [Example 20]; t
Cn1c(=O)n(-c2cncc3ccccc23)c(=O)c2oc(-c3ccccc3Cl)cc21 [Example 31]; f
COc1cc(-c2cc3[nH]c(=O)n(-c4cccnn4)c(=O)c3o2)c(Cl)cc1F [Example 15]; f
Cc1cncc(-n2c(=O)c3oc(-c4ccccc4Cl)cc3n(C)c2=O)c1 [Example 35]; f

State whether 200 nM exceeds EC50 recorded for N#CCn1c(=O)n(-c2cncc3ccccc23)c(=O)c2oc(-c3ccc(F)cc3Cl)cc21 [Example 46] .
t

Consider Cc1cncc(-n2c(=O)c3oc(-c4ccccc4Cl)cc3n(CCC#N)c2=O)c1 [Example 23] . Does its EC50 lie strictly below 200 nM?
t

Could you please tell me whether EC50 recorded for COc1cc(-c2cc3c(o2)c(=O)n(-c2cncc4cnn(C)c24)c(=O)n3CC2(C#N)CC2)c(Cl)cc1F [Example 49] is less than 200 nM?
t

Lab log: compare recorded EC50 with 200 nM; is it strictly lower for Cn1c(=O)n(-c2cncc3c2CCCC3)c(=O)c2oc(-c3ccccc3Cl)cc21 [Example 34] ?
f

Identify whether the compound Cn1ncc2cncc(-n3c(=O)[nH]c4cc(-c5ccccc5Cl)oc4c3=O)c21 [Example 6] records EC50 below 200 nM.
t

Criterion: EC50 strictly below 200 nM. Is it met by O=c1[nH]c2cc(-c3ccccc3Cl)oc2c(=O)n1-c1cncc2ccc(F)cc12 [Example 7] ?
t

----------
Documented EC50 across a set of molecules
# Tested on: SARS-CoV-2-NLuc in A549-hACE2 cells
# Assay method text: microbe, parasite or virus in culture
# Format: cell-based, SARS Coronavirus 2
# Measurement parameters: Severe acute respiratory syndrome coronavirus, 48 h, read-out: MPro EC50 (nM)
Report the figure in nM without appending any unit label.

Consider the reported EC50 for these molecules:
O=c1[nH]c2cc(-c3ccccc3Cl)oc2c(=O)n1-c1cncc2c1CCCC2 [Example 5]; 212
N#CC1(Cn2c(=O)n(-c3cncc4ccc(F)cc34)c(=O)c3oc(-c4ccccc4Cl)cc32)CC1 [Example 52]; 11.8
N#CCn1c(=O)n(-c2cncc3ccc(F)cc23)c(=O)c2oc(-c3ccccc3Cl)cc21 [Example 43]; 25.3
Cc1cncc(-n2c(=O)[nH]c3cc(-c4ccccc4Cl)oc3c2=O)c1 [Example 8]; 137
Cn1ncc2cncc(-n3c(=O)c4oc(-c5ccc(F)cc5Cl)cc4n(CCC#N)c3=O)c21 [Example 24]; 71.4
Cn1ncc2cncc(-n3c(=O)c4oc(-c5ccccc5Cl)cc4n(CC#N)c3=O)c21 [Example 38]; 88
Cn1ncc2cncc(-n3c(=O)c4oc(-c5ccccc5Cl)cc4n(CC4(C#N)CC4)c3=O)c21 [Example 48]; 8.36

Could you now consider this next molecule?
Could you share what EC50 was measured for COc1ccc2cncc(-n3c(=O)c4oc(-c5ccccc5Cl)cc4n(CC4(C#N)CC4)c3=O)c2c1 [Example 51] , tested on SARS-CoV-2-NLuc in A549-hACE2 cells?
12.1
